Test: Measurement of logPow (OECD 107, n-octanol/water, shake flask method)
Type: physicochemical
Settings: n-octanol/water; water layer pH 9.2 buffer, HPLC method
property: logD

Request: Fill blank: measured logD of the molecule CN(C/C=C/C#CC(C)(C)C)Cc1cccc2ccccc12 [Terbinafine free base] is ____.
Result: > 5

---

Test: Measurement of logPow (OECD 107, n-octanol/water, shake flask method)
Assay type: physicochemical
Conditions: n-octanol/water; water layer distilled water, HPLC method
property: logP
Answers are plain numbers.

Request: Fill blank: measured logP of the compound CC=CC(=O)N(CC)c1ccccc1C (mixture of isomers) [Crotamiton, crotamiton] is ____.
Result: 3.1

---

Assay: Measurement of logPow (OECD 107, n-octanol/water, shake flask method)
Format: physicochemical
Details: n-octanol/water; water layer pH 10 buffer, HPLC method
property: logD
Numbers only.

Request: Fill blank: measured logD of the compound CCOCCn1c(N2CCCN(C)CC2)nc2ccccc21 [Emedastine free base, emedastine free base] is ____.
Result: 2.4

---

Assay: Measurement of viscosity at 40° C. (type E viscometer)
Assay type: physicochemical
property: Viscosity (mPa·s)
Answers are plain numbers, in mPa·s.

Solved entries:
COc1ccc(CCN(C)CCCC(C#N)(c2cc(OC)c(OC)c(OC)c2)C(C)C)cc1OC (stereo not shown) [Gallopamil free base, gallopamil free base] ... 4500
CN(C/C=C/C#CC(C)(C)C)Cc1cccc2ccccc12 [Terbinafine free base] ... 280
CC=CC(=O)N(CC)c1ccccc1C (mixture of isomers) ... 16

Now consider the entry below.
Request: Fill blank: measured Viscosity of the compound CCOCCn1c(N2CCCN(C)CC2)nc2ccccc21 [Emedastine free base, emedastine free base] is ____.
Result: 280

Reference for the values: patent US20090169603A1
